B1: VH:VL chains; a variant is named by its letters at X, in order (parent)
chain 1: QVQLVQSGAEVKKPGASVKVSCKASGYTFTDYXMHWVRQAPGQGLEWMGXVNPNXXXTTYNQKFEGRVTMTTDTSTSTAYMELRSLRSDDTAVYYCARXNXLDXWGQGTTVTVSS
chain 2: DIQMTQSPSSLSASVGDRVTITCSVSSSVSSIYLHWYQQKPGKAPKLLIYSTSNLASGVPSRFSGSGSGTDFTLTISSLQPEDFATYYCQVYSGYPLTFGGGTKVEIK

Variants of: B1
Assay: yeast display scFab, FACS + sequencing
Conditions: with MET
The other results are listed elsewhere or left out. No count for the full screen is at hand.
Property Name: antigen binding call

Consider the reported antigen binding call for these variants:
>>> recorded_result("VRTGDSAY")
"binds"
>>> recorded_result("YKAKGAAA")
"binds"
>>> recorded_result("SEGGDAGD")
"no binding"
>>> recorded_result("YRARGAVA")
"binds"

Let's switch to this variant now.
For reference, reported antigen binding call for "VEEEDYSS" stands at no binding
